tested on: MolM14 leukemia cell line; experiment: CellTiter-Glo assay, drug administered alone; format: cell-based; conditions: Homo sapiens, MOLM-14, 72 h, cytarabine alone; MolM14; 72 hours; read-out: IC50 Second test
measured.endpoint: IC50 (nM)
Numbers only; they are read as nM.

Q: // IC50 lookup, key: Nc1ccn([C@@H]2O[C@H](CO)[C@@H](O)[C@@H]2O)c(=O)n1 [Cytarabine]
Ans: 93.3
